Assay: Plasma PK in a cyno monkey, single subcutaneous dose
Settings: cynomolgus monkey, sc, 2.25 mg/kg
Bridge positions count the residues as written; N and C are the ends. Square brackets hold non-standard residues; d marks the D form. Peptide text beside a SMILES is read from it. S5 = C=CCCC[C@](C)(N)C(=O)O; Nle = CCCC[C@H](N)C(=O)O; Aib = CC(C)(N)C(=O)O

{"columns": ["compound", "MRT / h"],
 "data": [
  ["CCCC[C@H](NC(C)=O)C(=O)N[C@@H](CC(=O)O)C(=O)N[C@H](C(=O)N[C@@H](CC(N)=O)C(=O)N[C@@]1(C)CCCC=CCCC[C@@](C)(C(=O)N[C@@H](CC(C)C)C(=O)N[C@@H](CCCCN)C(=O)N[C@H](C(=O)NC(C)(C)C(=O)N[C@@H](C)C(=O)N[C@@H](CCC(N)=O)C(N)=O)C(C)C)NC(=O)[C@H](CC(C)C)NC(=O)[C@H](CC(C)C)NC(=O)[C@H]([C@@H](C)O)NC1=O)C(C)C [AP1, Ac-NleDVN$TLL$LKVAibAQ-NH2] (Ac-[Nle]DVN[S5]TLL[S5]LKV[Aib]AQ-NH2; staple 5-9)", 21]
]}
